Record form. Attribute: B/Bo (inhibition of binding to LR04). Fill in for each entry.
- TARGET OR TEST SYSTEM: LRO4
- ASSAY TEXT: competitive phage ELISA, coated LRO4; competitor MDA-LDL 50 µg/mL
Bridges are numbered along the chain shown (N, C = ends). Where no end group is shown, it is not given here.
Note to self: number, then unit, no commentary.

Q) For HSLSNIQMATLAGGGS (peptide, not shown: large carriers) [phage clones M10, G8] , what is its reported B/Bo (inhibition of binding to LR04)?
A) 0.1 B/Bo

Q) Name the reported B/Bo (inhibition of binding to LR04) value associated with the binder ACNNSNMPLCGGGS (peptide, not shown: large carriers, disulfide 2-10; also: C-terminus fused to phage pIII) [phage clone Cb10]
A) 0.02 B/Bo

Now consider the entry below.
Q) Look up B/Bo (inhibition of binding to LR04): QSYTNDDVLRISGGGS (peptide, not shown: large carriers) [phage clone M19]
A) 0.25 B/Bo

Data provenance is patent US20150056209A1.
